- TEST SYSTEM: farnesyl protein transferase (Homo sapiens, UniProt P49354+P49356)
- EXPERIMENT SUMMARY: FPT IC50 (inhibition of farnesyl protein transferase, in vitro enzyme assay)
pIC50: −log10 of the molar value.
Returns one of Yes or No; Yes when pIC50 is >= 8.

Q. Assess whether reported pIC50 for O=C(O)Cc1cccc(CC(=O)N2CCC([C@H]3c4ncc(Br)cc4CCc4cc(Cl)cc(Br)c43)CC2)c1 [Example 4] sits at 8 or higher.
A. Yes

Q. Assess whether reported pIC50 for NC(=O)Cc1ccc(CC(=O)N2CCC([C@H]3c4ncc(Br)cc4CCc4cc(Cl)cc(Br)c43)CC2)cc1 [Example 15] sits at 8 or higher.
A. Yes

Q. Assess whether reported pIC50 for O=C(O)Cc1ccc(CC(=O)N2CCC([C@H]3c4ncc(Br)cc4CCc4cc(Cl)cc(Br)c43)CC2)cc1 [Example 3] sits at 8 or higher.
A. Yes

Q. Assess whether reported pIC50 for O=C(Cc1ccccc1C(=O)N1CCC([C@H]2c3ncc(Br)cc3CCc3cc(Cl)cc(Br)c32)CC1)N1CCOCC1 [Example 11] sits at 8 or higher.
A. No

Q. Assess whether reported pIC50 for O=C(NO)c1ccccc1CC(=O)N1CCC([C@H]2c3ncc(Br)cc3CCc3cc(Cl)cc(Br)c32)CC1 [Example 27] sits at 8 or higher.
A. No

Q. Assess whether reported pIC50 for CC(C)(C)OC(=O)C=C1CCC(=CC(=O)N2CCC([C@H]3c4ncc(Br)cc4CCc4cc(Cl)cc(Br)c43)CC2)CC1 [Example 7] sits at 8 or higher.
A. No

Q. Assess whether reported pIC50 for CC(C)(C)OC(=O)CC1CCC(CC(=O)N2CCC([C@H]3c4ncc(Br)cc4CCc4cc(Cl)cc(Br)c43)CC2)CC1 (stereo partly drawn) [Example 6] sits at 8 or higher.
A. No

Q. Assess whether reported pIC50 for O=C(O)[C@H]1CC[C@H](C(=O)N2CCC([C@H]3c4ncc(Br)cc4CCc4cc(Cl)cc(Br)c43)CC2)CC1 [Example 5] sits at 8 or higher.
A. No

Q. Assess whether reported pIC50 for O=C(O)C=C1CCC(=CC(=O)N2CCC([C@H]3c4ncc(Br)cc4CCc4cc(Cl)cc(Br)c43)CC2)CC1 [Example 14] sits at 8 or higher.
A. Yes

Q. Assess whether reported pIC50 for COC(=O)[C@H]1C[C@@H]1C(=O)N1CCC([C@H]2c3ncc(Br)cc3CCc3cc(Cl)cc(Br)c32)CC1 [30 (compound 55.1)] sits at 8 or higher.
A. No

Q. Assess whether reported pIC50 for O=C(NCc1ccncc1)c1ccccc1CC(=O)N1CCC([C@H]2c3ncc(Br)cc3CCc3cc(Cl)cc(Br)c32)CC1 [Example 24] sits at 8 or higher.
A. No

Q. Assess whether reported pIC50 for O=C(O)CC1CCC(CC(=O)N2CCC([C@H]3c4ncc(Br)cc4CCc4cc(Cl)cc(Br)c43)CC2)CC1 (stereo partly drawn) [Example 13] sits at 8 or higher.
A. Yes

Q. Assess whether reported pIC50 for NC(=O)C1CCC(CC(=O)N2CCC(C3c4ncc(Br)cc4CCc4cc(Cl)cc(Br)c43)CC2)CC1 (stereo not drawn) [Example 23] sits at 8 or higher.
A. Yes

Q. Assess whether reported pIC50 for CONC(=O)Cc1ccc(CC(=O)N2CCC([C@H]3c4ncc(Br)cc4CCc4cc(Cl)cc(Br)c43)CC2)cc1 [Example 19] sits at 8 or higher.
A. Yes

Q. Assess whether reported pIC50 for COC(=O)CNC(=O)c1ccccc1CC(=O)N1CCC([C@H]2c3ncc(Br)cc3CCc3cc(Cl)cc(Br)c32)CC1 [Example 25] sits at 8 or higher.
A. No

Q. Assess whether reported pIC50 for CC(C)(C)OC(=O)C[C@H]1CC[C@@H](C(=O)N2CCC([C@H]3c4ncc(Br)cc4CCc4cc(Cl)cc(Br)c43)CC2)CC1 [Example 9] sits at 8 or higher.
A. No

Q. Assess whether reported pIC50 for O=C(Cc1ccc(CC(=O)N2CCC([C@H]3c4ncc(Br)cc4CCc4cc(Cl)cc(Br)c43)CC2)cc1)NCCO [Example 20] sits at 8 or higher.
A. No

Q. Assess whether reported pIC50 for COC(=O)[C@@H]1C[C@H]1C(=O)N1CCC([C@H]2c3ncc(Br)cc3CCc3cc(Cl)cc(Br)c32)CC1 [Example 29 (compound 54.1)] sits at 8 or higher.
A. No

Q. Assess whether reported pIC50 for O=C(O)C1CCC(CC(=O)N2CCC([C@H]3c4ncc(Br)cc4CCc4cc(Cl)cc(Br)c43)CC2)CC1 (stereo partly drawn) [Example 12] sits at 8 or higher.
A. Yes

Q. Assess whether reported pIC50 for O=C(O)C[C@H]1CC[C@@H](C(=O)N2CCC([C@H]3c4ncc(Br)cc4CCc4cc(Cl)cc(Br)c43)CC2)CC1 [Example 35] sits at 8 or higher.
A. Yes

Origin of the recorded values: patent US6399615B1
